Assay: Repeated discontinuous oral DEX PK study (another 60 mice)
Format: in vivo, mouse
Details: female, C57BL/6, mouse, plasma, oral, 8 mg/L, DEX conc, Average ± S.D. of quantifiable samples, plasma; repeated study; VD3 Deficient, F; Day 3.5; n=15
quantityName: concentration at 3.5 day (nM)
Express your answer in nM, writing the number without its unit.

Inquiry: Name the reported concentration at 3.5 day value associated with the compound C[C@@H]1C[C@H]2[C@@H]3CCC4=CC(=O)C=C[C@]4(C)[C@@]3(F)[C@@H](O)C[C@]2(C)[C@@]1(O)C(=O)CO [DEX, dexamethasone]
Reply text: 51.8

###

Assay: Plasma DEX concentrations on discontinuous oral DEX regimen in drinking water (Fig 3)
Type: in vivo, mouse
Conditions: male, C57BL/6, mouse, plasma, oral, 8 mg/L, Dexamethasone conc, avg, plasma; male; VD3 deficient; day 3.5; n=8
quantityName: concentration at 3.5 day (nM)
Express your answer in nM, writing the number without its unit.

Inquiry: Name the reported concentration at 3.5 day value associated with the molecule "C[C@@H]1C[C@H]2[C@@H]3CCC4=CC(=O)C=C[C@]4(C)[C@@]3(F)[C@@H](O)C[C@]2(C)[C@@]1(O)C(=O)CO"
Reply text: 31.7

###

Experiment: Dasatinib single oral gavage plasma pharmacokinetics (NLME modeling)
Format: in vivo, mouse
Details: female, C57BL/6, mouse, plasma, oral, 10 mg/kg, GROUP:VD3 Def, SEX:F, OCC 1, time 0.5; read-out: DV (dasatinib plasma concentration)
quantityName: concentration at 0.5 h (ng/mL)
Express your answer in ng/mL, writing the number without its unit.

Inquiry: Name the reported concentration at 0.5 h value associated with the compound "Cc1nc(Nc2ncc(C(=O)Nc3c(C)cccc3Cl)s2)cc(N2CCN(CCO)CC2)n1"
Reply text: 149

###

Test: Dasatinib single oral gavage plasma pharmacokinetics (NLME modeling)
Assay type: in vivo, mouse
Details: male, C57BL/6, mouse, plasma, oral, 10 mg/kg, GROUP:VD3 Suf, SEX:M, OCC 2, time 1; read-out: DV (dasatinib plasma concentration)
quantityName: concentration at 1 h

Inquiry: Name the reported concentration at 1 h value associated with the compound "Cc1nc(Nc2ncc(C(=O)Nc3c(C)cccc3Cl)s2)cc(N2CCN(CCO)CC2)n1"
Reply text: > 500 ng/mL

###

Test: Dasatinib single oral gavage plasma pharmacokinetics (NLME modeling)
Format: in vivo, mouse
Settings: female, C57BL/6, mouse, plasma, oral, 10 mg/kg, GROUP:VD3 Suf, SEX:F, OCC 1, time 2; read-out: DV (dasatinib plasma concentration)
quantityName: concentration at 2 h (ng/mL)
Express your answer in ng/mL, writing the number without its unit.

Inquiry: Name the reported concentration at 2 h value associated with the compound "Cc1nc(Nc2ncc(C(=O)Nc3c(C)cccc3Cl)s2)cc(N2CCN(CCO)CC2)n1"
Reply text: 405

###

Assay: Dasatinib single oral gavage plasma pharmacokinetics (NLME modeling)
Assay type: in vivo, mouse
Settings: male, C57BL/6, mouse, plasma, oral, 10 mg/kg, GROUP:VD3 Def, SEX:M, OCC 1, time 24; read-out: DV (dasatinib plasma concentration)
quantityName: concentration at 24 h (ng/mL)
Express your answer in ng/mL, writing the number without its unit.

Inquiry: Name the reported concentration at 24 h value associated with the molecule "Cc1nc(Nc2ncc(C(=O)Nc3c(C)cccc3Cl)s2)cc(N2CCN(CCO)CC2)n1"
Reply text: 6.39

###

Assay: Dasatinib single oral gavage plasma pharmacokinetics (NLME modeling)
Assay type: in vivo, mouse
Settings: male, C57BL/6, mouse, plasma, oral, 10 mg/kg, GROUP:VD3 Suf, SEX:M, OCC 1, time 4; read-out: DV (dasatinib plasma concentration)
quantityName: concentration at 4 h

Inquiry: Name the reported concentration at 4 h value associated with the compound "Cc1nc(Nc2ncc(C(=O)Nc3c(C)cccc3Cl)s2)cc(N2CCN(CCO)CC2)n1"
Reply text: 147 ng/mL

###

Assay: Dasatinib single oral gavage plasma pharmacokinetics (NLME modeling)
Format: in vivo, mouse
Conditions: male, C57BL/6, mouse, plasma, oral, 10 mg/kg, GROUP:VD3 Def, SEX:M, OCC 2, time 4; read-out: DV (dasatinib plasma concentration)
quantityName: concentration at 4 h (ng/mL)
Express your answer in ng/mL, writing the number without its unit.

Inquiry: Name the reported concentration at 4 h value associated with the molecule "Cc1nc(Nc2ncc(C(=O)Nc3c(C)cccc3Cl)s2)cc(N2CCN(CCO)CC2)n1"
Reply text: 83.2

###

Experiment: Dasatinib single oral gavage plasma pharmacokinetics (NLME modeling)
Format: in vivo, mouse
Settings: female, C57BL/6, mouse, plasma, oral, 10 mg/kg, GROUP:VD3 Def, SEX:F, OCC 2, time 16; read-out: DV (dasatinib plasma concentration)
quantityName: concentration at 16 h (ng/mL)
Express your answer in ng/mL, writing the number without its unit.

Inquiry: Name the reported concentration at 16 h value associated with the molecule "Cc1nc(Nc2ncc(C(=O)Nc3c(C)cccc3Cl)s2)cc(N2CCN(CCO)CC2)n1"
Reply text: 4.35

###

Test: Plasma DEX concentrations on discontinuous oral DEX regimen in drinking water (Fig 3)
Assay type: in vivo, mouse
Details: female, C57BL/6, mouse, plasma, oral, 8 mg/L, Dexamethasone conc, avg; VD3 deficient; D3.5; n=5
quantityName: concentration at 3.5 day (nM)
Express your answer in nM, writing the number without its unit.

Inquiry: Name the reported concentration at 3.5 day value associated with the molecule C[C@@H]1C[C@H]2[C@@H]3CCC4=CC(=O)C=C[C@]4(C)[C@@]3(F)[C@@H](O)C[C@]2(C)[C@@]1(O)C(=O)CO [DEX, dexamethasone]
Reply text: 78

###

Test: Dasatinib single oral gavage plasma pharmacokinetics (NLME modeling)
Assay type: in vivo, mouse
Conditions: male, C57BL/6, mouse, plasma, oral, 10 mg/kg, GROUP:VD3 Suf, SEX:M, OCC 1, time 0.125; read-out: DV (dasatinib plasma concentration)
Protocol: Dasatinib was dissolved in 80 mMol/L sodium citrate buffer pH 3.1 for a total dasatinib concentration of 1 mg/mL and a 10 mL/kg gavage volume. Mice were grouped by VD3 status and sex and studied at 8 and 10 weeks of age. […] Total plasma dasatinib concentrations were assessed using a sensitive and specific liquid chromatography, tandem mass spectrometry (LC-MS/MS) assay. […]
quantityName: concentration at […] (µg/mL)
Express your answer in µg/mL, writing the number without its unit.

Inquiry: Name the reported concentration at […] value associated with the compound Cc1nc(Nc2ncc(C(=O)Nc3c(C)cccc3Cl)s2)cc(N2CCN(CCO)CC2)n1 [dasatinib]
Reply text: 0.0494

###

Assay: Dasatinib single oral gavage plasma pharmacokinetics (NLME modeling)
Type: in vivo, mouse
Details: Final Model (VD3 status and sex covariates on Cl)
Method: Dasatinib was dissolved in 80 mMol/L sodium citrate buffer pH 3.1 for a total dasatinib concentration of 1 mg/mL and a 10 mL/kg gavage volume. Mice were grouped by VD3 status and sex and studied at 8 and 10 weeks of age. […] Total plasma dasatinib concentrations were assessed using a sensitive and specific liquid chromatography, tandem mass spectrometry (LC-MS/MS) assay. […]
quantityName: Tk0 pop (h)
Express your answer in h, writing the number without its unit.

Inquiry: Name the reported Tk0 pop value associated with the compound "Cc1nc(Nc2ncc(C(=O)Nc3c(C)cccc3Cl)s2)cc(N2CCN(CCO)CC2)n1"
Reply text: 1.33

###

Test: Dasatinib single oral gavage plasma pharmacokinetics (NLME modeling)
Format: in vivo, mouse
Conditions: male, C57BL/6, mouse, plasma, oral, 10 mg/kg, GROUP:VD3 Def, SEX:M, OCC 2, time 0.5; read-out: DV (dasatinib plasma concentration)
quantityName: concentration at 0.5 h (ng/mL)
Express your answer in ng/mL, writing the number without its unit.

Inquiry: Name the reported concentration at 0.5 h value associated with the compound "Cc1nc(Nc2ncc(C(=O)Nc3c(C)cccc3Cl)s2)cc(N2CCN(CCO)CC2)n1"
Reply text: 178

###

Assay: Dasatinib single oral gavage plasma pharmacokinetics (NLME modeling)
Format: in vivo, mouse
Conditions: female, C57BL/6, mouse, plasma, oral, 10 mg/kg, GROUP:VD3 Suf, SEX:F, OCC 1, time 0.25; read-out: DV (dasatinib plasma concentration)
quantityName: concentration at […] (ng/mL)
Express your answer in ng/mL, writing the number without its unit.

Inquiry: Name the reported concentration at […] value associated with the compound Cc1nc(Nc2ncc(C(=O)Nc3c(C)cccc3Cl)s2)cc(N2CCN(CCO)CC2)n1 [dasatinib]
Reply text: 167

###

Test: Dasatinib single oral gavage plasma pharmacokinetics (NLME modeling)
Type: in vivo, mouse
Details: female, C57BL/6, mouse, plasma, oral, 10 mg/kg, GROUP:VD3 Def, SEX:F, OCC 1, time 8; read-out: DV (dasatinib plasma concentration)
quantityName: concentration at 8 h (ng/mL)
Express your answer in ng/mL, writing the number without its unit.

Inquiry: Name the reported concentration at 8 h value associated with the compound "Cc1nc(Nc2ncc(C(=O)Nc3c(C)cccc3Cl)s2)cc(N2CCN(CCO)CC2)n1"
Reply text: 25.2

Source of measurements: paper PMC8528301
